- Tested on: Caenorhabditis elegans N2
- measurement.protocol: lowest effective concentration for larval growth inhibition (size below effect threshold); higher = less potent
- condition.label: exposure time 48 h
The label depends only on lowest effective concentration: true if it is at least 50 µM, false if it is smaller.

IN: Decide: lowest effective concentration of CC(Cl)(Cl)C(=O)O [Dalapon] >= 50 µM?
OUT: true

IN: Decide: lowest effective concentration of O=C(O)[C@@H]1[C@H](C(=O)O)[C@H]2CC[C@@H]1O2 [Endothal] >= 50 µM?
OUT: true

IN: Decide: lowest effective concentration of CC1=CC(=O)CC(C)(C)C1 [Isophorone] >= 50 µM?
OUT: true

IN: Decide: lowest effective concentration of `CC(C)(O)c1coc(S(=O)(=O)NC(=O)Nc2c3c(cc4c2CCC4)CCC3)c1` >= 50 µM?
OUT: true

IN: Decide: lowest effective concentration of CCN(CC)c1nc(C)cc(OP(=S)(OC)OC)n1 [Pirimiphos-methyl] >= 50 µM?
OUT: true

IN: Decide: lowest effective concentration of O=C(O)c1cc(/N=N/c2ccc(S(=O)(=O)Nc3ccccn3)cc2)ccc1O [Sulfasalazine] >= 50 µM?
OUT: true

IN: Decide: lowest effective concentration of CC(C)N(C(=O)COc1nnc(C(F)(F)F)s1)c1ccc(F)cc1 [Flufenacet] >= 50 µM?
OUT: true

IN: Decide: lowest effective concentration of CC(C)=CCCC(C)CCO (configuration not stated) [Citronellol] >= 50 µM?
OUT: true

IN: Decide: lowest effective concentration of `O=C(N[C@H]1CN2CCC1CC2)c1cc2ccoc2cn1` >= 50 µM?
OUT: true

IN: Decide: lowest effective concentration of Cn1cnc([N+](=O)[O-])c1Sc1ncnc2[nH]cnc12 [Azathioprine] >= 50 µM?
OUT: true

IN: Decide: lowest effective concentration of Nc1ccc([N+](=O)[O-])cc1 [4-Nitroaniline] >= 50 µM?
OUT: true

IN: Decide: lowest effective concentration of CCOP(=S)(Oc1ccc([N+](=O)[O-])cc1)c1ccccc1 (configuration not stated) [O-Ethyl O-(p-nitrophenyl) phenylphosphonothioate] >= 50 µM?
OUT: false

IN: Decide: lowest effective concentration of Cc1cc(Cl)ccc1OCC(=O)O [MCPA] >= 50 µM?
OUT: true

IN: Decide: lowest effective concentration of CCOP(=S)(OCC)SCn1c(=O)oc2cc(Cl)ccc21 [Phosalone] >= 50 µM?
OUT: false

IN: Decide: lowest effective concentration of Cc1c2ccccc2c(C)c2c1ccc1ccccc12 [7,12-Dimethylbenz(a)anthracene] >= 50 µM?
OUT: false

IN: Decide: lowest effective concentration of CCCCCCCCn1sccc1=O [Octhilinone] >= 50 µM?
OUT: false

IN: Decide: lowest effective concentration of c1ccc(Nc2ccccc2)cc1 [Diphenylamine] >= 50 µM?
OUT: false

IN: Decide: lowest effective concentration of `CC(C)(O)c1ccc(CNC(=O)c2cccnc2Oc2ccc3nonc3c2)cc1` >= 50 µM?
OUT: true

IN: Decide: lowest effective concentration of Oc1ccccc1O [Catechol] >= 50 µM?
OUT: true

IN: Decide: lowest effective concentration of COc1ccc([N+](=O)[O-])cc1N [2-methoxy-5-nitroaniline] >= 50 µM?
OUT: true

IN: Decide: lowest effective concentration of CC1=C(/C=C/C(C)=C/C=C/C(C)=C/CO)C(C)(C)CCC1 [Retinol] >= 50 µM?
OUT: true

IN: Decide: lowest effective concentration of CC1(C)C(C=C(Cl)Cl)C1C(=O)OCc1cccc(Oc2ccccc2)c1 (configuration not stated) [Permethrin] >= 50 µM?
OUT: false

IN: Decide: lowest effective concentration of COCC(C)OCC(C)OCC(C)O (configuration not stated) [Tripropylene glycol monomethyl ether] >= 50 µM?
OUT: true

IN: Decide: lowest effective concentration of O=C(O)c1ccccc1C(=O)OCc1ccccc1 [Benzyl hydrogen phthalate] >= 50 µM?
OUT: true

IN: Decide: lowest effective concentration of CC(=O)Oc1ccccc1C(=O)O [Aspirin] >= 50 µM?
OUT: true

IN: Decide: lowest effective concentration of O=C1c2c(O)cccc2Cc2cccc(O)c21 [Dithranol] >= 50 µM?
OUT: true

IN: Decide: lowest effective concentration of O=C=NCCCCCCN=C=O [1,6-Diisocyanatohexane] >= 50 µM?
OUT: true

IN: Decide: lowest effective concentration of O=P1(N(CCCl)CCCl)NCCCO1 (configuration not stated) [Cytoxan hydrate] >= 50 µM?
OUT: true

IN: Decide: lowest effective concentration of C=C(C)CN(CC)c1c([N+](=O)[O-])cc(C(F)(F)F)cc1[N+](=O)[O-] [Ethalfluralin] >= 50 µM?
OUT: true

IN: Decide: lowest effective concentration of CCN(CC)C(=O)C(C)Oc1cccc2ccccc12 (configuration not stated) [Napropamide] >= 50 µM?
OUT: true

IN: Decide: lowest effective concentration of C[C@H](O)CCO [1,3-Butanediol] >= 50 µM?
OUT: true

IN: Decide: lowest effective concentration of N#CSCSC#N [Methylene bis(thiocyanate)] >= 50 µM?
OUT: false

IN: Decide: lowest effective concentration of O=Cc1ccco1 [Furfural] >= 50 µM?
OUT: true

IN: Decide: lowest effective concentration of O=C([O-])c1ccccc1.[Na+] [Sodium benzoate] >= 50 µM?
OUT: true

IN: Decide: lowest effective concentration of O=C(O)c1nc(Cl)ccc1Cl [Clopyralid] >= 50 µM?
OUT: true

IN: Decide: lowest effective concentration of CN(Cc1cnc2nc(N)nc(N)c2n1)c1ccc(C(=O)N[C@@H](CCC(=O)O)C(=O)O)cc1 [Methotrexate] >= 50 µM?
OUT: true

IN: Decide: lowest effective concentration of C=CCCCCCCCCC(=O)O [10-Undecenoic acid] >= 50 µM?
OUT: true
